Taken from ChEMBL document CHEMBL3433997.

# TARGET ENTITY: Hexose transporter 1 (Plasmodium falciparum)
# EXPERIMENT: ST_JUDE_LEISH: Cytotoxicity at 2uM final concentration against transgenic Leishmania Mexicana promastigotes LmPfHT that are glucose transport deficient and complemented with the Plasmodium falciparum hexose transporter. Activity is measured by DNA content using SYBR green in vitro
# Type: functional
MEASURE: inhibition (%)
Numeric only. Scale: %

Prompt line: Given CC1CN(c2ncc(-c3ccc(CNC4Cc5ccccc5C4)cc3)cn2)CC(C)N1 (centres undefined) , respond with its inhibition.
Response line: 2.64

----------
# TARGET ENTITY: Glucose transporter (Leishmania mexicana) (UniProt O61059)
# EXPERIMENT: ST_JUDE_LEISH: Cytotoxicity at 2uM final concentration against transgenic Leishmania Mexicana promastigotes LmGT2 that are glucose transport deficient and complemented with the L. Mexicana glucose transporter 2. Activity is measured by DNA content using SYBR green in vitro
# Format: functional
// inhibition lookup, one value per entry
Numeric only. Scale: %

In the examples that follow, each entry is paired with its recorded inhibition.
CCCc1cc(Cc2cnc(N)nc2N)cc(OCCCCCC(=O)O)c1OC :: 0.67
Cc1ccc(O)cc1Nc1ccnc2cc(-c3cccc(CNCCS(C)(=O)=O)c3)ccc12 :: -3.77
COc1ccc(NC(=O)/C=C/c2ccc(Cl)c(Cl)c2)cc1N1CCN(C)CC1 :: 6.48

Note: attention shifts to another entry.
Prompt line: Given COc1cc(CNC[C@@H](O)[C@H](Cc2ccccc2)NC(=O)c2cc(OC(C)C)cc(N3CCCCS3(=O)=O)c2)cc(OC)c1 , respond with its inhibition.
Response line: 1.3
